Test Protocol: Quantitative High-Throughput drug screen in 47 multiple myeloma cell lines against the NCATS MIPE library collection: MOLP8_DSMZ cell viability assay (AID 1918977); also: nearly all actives have a fitted effect of over 45% in size
Condition Label: MOLP8 myeloma viability, CellTiter-Glo ATP luminescence, 48 h; series mostly up to 45.8 µM
Inconclusive results are not listed. The source made the active and inactive calls. Calls follow the shape of the dose curve; as a rule, active = well fitted cell-killing curve with a large enough effect; inconclusive = small, poorly fitted or top-dose-only effect, or effect the other way; inactive = no such curve, though single readings can be large or run the other way.
Possible outcomes: true (1) for active, false (0) for inactive

{"Compound": "CCCc1cc(C(N)=S)ccn1", "Discrete Label": "false (0)"}
{"Compound": "C1CCC(C(CC2CCCCN2)C2CCCCC2)CC1 (stereo not drawn)", "Discrete Label": "true (1)"}
{"Compound": "COC(=O)Nc1nc2ccc(Sc3ccccc3)cc2[nH]1", "Discrete Label": "true (1)"}
{"Compound": "CCC(=O)O[C@]1(C(=O)SCF)[C@H](C)C[C@H]2[C@@H]3C[C@H](F)C4=CC(=O)C=C[C@]4(C)[C@@]3(F)[C@@H](O)C[C@@]21C", "Discrete Label": "false (0)"}
{"Compound": "COc1cc(NS(=O)(=O)c2ccc(N)cc2)nc(OC)n1", "Discrete Label": "false (0)"}
{"Compound": "CN(CCOc1ccc(CC2SC(=O)NC2=O)cc1)c1ccccn1 (stereo not drawn)", "Discrete Label": "false (0)"}
{"Compound": "O=C(O)c1cn(C2CC2)c2cc(N3CCNCC3)c(F)cc2c1=O", "Discrete Label": "false (0)"}
{"Compound": "N=C(N)c1ccc(OCCCCCOc2ccc(C(=N)N)cc2)cc1", "Discrete Label": "true (1)"}

* * *

Test Protocol: qHTS for Inhibitors of ATXN expression: Validation of Cytotoxic Assay (AID 588349);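 also: cells exposed to compound for 72 hr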; also: potency is read from the fitted curve at half-maximal effect
Condition Label: cytotoxicity counter-screen for ATXN expression inhibitors, cell viability; series mostly up to 57.1 µM
Results filed as inconclusive are left out. Active and inactive are the calls of the source. The call rests on the fitted dose curve; in most records, active means well fitted cell-killing curve with a large enough effect; inconclusive means small, poorly fitted or top-dose-only effect, or effect the other way; inactive means flat fitted curve, though single readings scatter.
Reported Property: Potency

{"Line Notation": "CC(=O)[C@H]1CC[C@H]2[C@@H]3CCC4=CC(=O)CC[C@]4(C)[C@H]3CC[C@]12C", "Experimental Value": "inactive"}
{"Line Notation": "OCc1ccc(-c2nn(Cc3ccccc3)c3ccccc23)o1", "Experimental Value": "inactive"}
{"Line Notation": "Cc1ccc(S(=O)(=O)N[C@@H](Cc2ccccc2)C(=O)CCl)cc1", "Experimental Value": "14.1 µM (active)"}
{"Line Notation": "CCN(CC)CCn1c(=O)c(Cc2ccc(OC)cc2)nc2ccccc21", "Experimental Value": "inactive"}
{"Line Notation": "NC(=O)c1cccc(N)c1", "Experimental Value": "inactive"}

* * *

Test Protocol: Quantitative High-Throughput drug screen in 47 multiple myeloma cell lines against the NCATS MIPE library collection: XG1_PLB cell viability assay (AID 1919866); also: nearly all actives have a fitted effect of over 35% in size
Condition Label: CellTiter-Glo ATP, 48 h; series mostly up to 45.8 µM
Inconclusive results are not listed. Active and inactive are the calls of the source. Calls come from the whole dose curve; as a rule, active = well fitted cell-killing curve with a large enough effect; inconclusive = small, poorly fitted or top-dose-only effect, or effect the other way; inactive = no such curve, though single readings can be large or run the other way.
Possible outcomes: active, inactive

{"Compound": "CNS(=O)(=O)CCc1ccc2[nH]cc(C3CCN(C)CC3)c2c1", "Discrete Label": "active"}
{"Compound": "CCCc1cc(C(N)=S)ccn1", "Discrete Label": "inactive"}
{"Compound": "CC(C)(C#N)c1cc(Cn2cncn2)cc(C(C)(C)C#N)c1", "Discrete Label": "inactive"}
{"Compound": "N=C(N)c1ccc(OCCCCCOc2ccc(C(=N)N)cc2)cc1", "Discrete Label": "active"}
{"Compound": "CC(=O)[C@H]1CC[C@H]2[C@@H]3CC=C4C[C@@H](O)CC[C@]4(C)[C@H]3CC[C@]12C", "Discrete Label": "inactive"}
{"Compound": "O=C(O)c1cn(C2CC2)c2cc(N3CCNCC3)c(F)cc2c1=O", "Discrete Label": "inactive"}
{"Compound": "CNC(=O)c1cc(Oc2ccc(NC(=O)Nc3ccc(Cl)c(C(F)(F)F)c3)cc2)ccn1", "Discrete Label": "active"}
{"Compound": "CCCCc1oc2ccc(NS(C)(=O)=O)cc2c1C(=O)c1ccc(OCCCN(CCCC)CCCC)cc1", "Discrete Label": "active"}
{"Compound": "NS(=O)(=O)c1cc2c(cc1Cl)NC(C(Cl)Cl)NS2(=O)=O (stereo not given)", "Discrete Label": "inactive"}
{"Compound": "COc1cc2nc(N3CCCN(C)CC3)nc(NC3CCN(Cc4ccccc4)CC3)c2cc1OC", "Discrete Label": "active"}
